B1: HDV Ribozyme (parent)
chain: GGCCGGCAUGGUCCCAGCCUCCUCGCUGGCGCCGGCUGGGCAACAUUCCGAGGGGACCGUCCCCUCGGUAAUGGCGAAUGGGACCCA

# Variants of: B1
# Test method notes: self-cleavage, relative activity (ratio to wild type); higher = more cleavage; co-transcriptional
# if value of self-cleavage reaches 0.2, tag Y; if it stays below, tag N

For this variant, is measured self-cleavage 0.2 or higher? GGCCGGCCUGGUCCCAGCCUCCUCGCUGGCGCCGGCUGGGCAACAUUCCGAGGGGACCAUCCCCUCGGUAAUGGCGAAUGGGACCCA [A8C G59A]
Y

For this variant, is measured self-cleavage 0.2 or higher? GGCCGGCAUAGUCCCAGCCUCCUCGCUGGCGCCGGCUGGGCAACAUUCCGAGGGGACCGUCCCCUCGGUAAUGGCGAAUGGGAUCCA [G10A C84U]
Y

For this variant, is measured self-cleavage 0.2 or higher? GGCCUGCAUGGUCCCAGCCUCCUCGCUGGCGCCGACUGGGCAACAUUCCGAGGGGACCGUCCCCUCGGUAAUGGCGAAUGGGACCCA [G5U G35A]
N

For this variant, is measured self-cleavage 0.2 or higher? GGCCGUCAUGGUCCCAGCCUCCUAGCUGGCGCCGGCUGGGCAACAUUCCGAGGGGACCGUCCCCUCGGUAAUGGCGAAUGGGACCCA [G6U C24A]
N

For this variant, is measured self-cleavage 0.2 or higher? GGCCGGCAUGGUCCCAGCCUCGUCGCCGGCGCCGGCUGGGCAACAUUCCGAGGGGACCGUCCCCUCGGUAAUGGCGAAUGGGACCCA [C22G U27C]
N

For this variant, is measured self-cleavage 0.2 or higher? GGCCGGCAUGGCCCCAGCCUCCUCGAUGGCGCCGGCUGGGCAACAUUCCGAGGGGACCGUCCCCUCGGUAAUGGCGAAUGGGACCCA [U12C C26A]
Y

For this variant, is measured self-cleavage 0.2 or higher? GGCCGGCAUGGUCCCAGCCUCCUCGCUGUCGCCGGCAGGGCAACAUUCCGAGGGGACCGUCCCCUCGGUAAUGGCGAAUGGGACCCA [G29U U37A]
N

For this variant, is measured self-cleavage 0.2 or higher? CGCCGGCAUGGUCCCAGCCUCCUCGCUGGCGCCGGCUGGGCAACAUUCCGAGGGGACCGUCCCCUCGGUAAUGGCGAAUGGGAUCCA [G1C C84U]
N

For this variant, is measured self-cleavage 0.2 or higher? GGCCGGCAUGGUCCCUGCCUCCUCGCUUGCGCCGGCUGGGCAACAUUCCGAGGGGACCGUCCCCUCGGUAAUGGCGAAUGGGACCCA [A16U G28U]
Y

For this variant, is measured self-cleavage 0.2 or higher? GGCCGGGAUGGUCCCAGCCUCCUCGCUGGCGCCGGCUGGGCAACAUUCCGAGGGGACCGUCCCCUCGGUAAUGGCGAAUGGGACCCC [C7G A87C]
Y

For this variant, is measured self-cleavage 0.2 or higher? GGCCGGCAUGGUCCCAGCCUCCUCGCUGGCGCCGGCUGGGCAACACUCCGAGGGGACCGUCCCCUCGGUAAUGGCGAAUGGCACCCA [U46C G82C]
Y

For this variant, is measured self-cleavage 0.2 or higher? GGCCGGCAUGGUCCCACCCUCCUCGCUGGCGCCGGCUGGGCAACAUUCCGAGGGCACCGUCCCCUCGGUAAUGGCGAAUGGGACCCA [G17C G55C]
Y

For this variant, is measured self-cleavage 0.2 or higher? GGCCGGCAUGGUCCCAGACUCCUCGCUGGCGCCGGCUGGGCAACAUUCCGAGGGGACCGUCCCCUCGGUCAUGGCGAAUGGGACCCA [C18A A70C]
N

For this variant, is measured self-cleavage 0.2 or higher? GGCCGGCAUGGUCCCAGCCUCCUCGCUGGCGCCGGCUGGGCUACAUUCCGAGGGGACCGUCCCCUGGGUAAUGGCGAAUGGGACCCA [A42U C66G]
Y

For this variant, is measured self-cleavage 0.2 or higher? GGCCGGCAUGGUCCCAGCCUCCUCGCUGGCGCGGGCUGGGCAACAUUCCGAGGGGACCGUCCCCUCGGUAAUGGCGAAUGGGACACA [C33G C85A]
N

For this variant, is measured self-cleavage 0.2 or higher? GGCCGGCAUGGUCCCAGCCUCCUCGCUGGCGCCGGCUGGGCAACAUUCCGAGUGGACCGUCCCGUCGGUAAUGGCGAAUGGGACCCA [G53U C64G]
Y

For this variant, is measured self-cleavage 0.2 or higher? GGCCGGCAUGGUCCCAGCCUCCUCGCUGGCGCCGGCUGGGCAACAUUCCAAGGGGACGGUCCCCUCGGUAAUGGCGAAUGGGACCCA [G50A C58G]
Y

For this variant, is measured self-cleavage 0.2 or higher? GGCCGGCAUGGUCCCAGCCUCCUCGCUGGCUCCGGCUGGGCAACAUUCCGAGGGGACCGUCCCCUCGGUAAUGACGAAUGGGACCCA [G31U G74A]
N

For this variant, is measured self-cleavage 0.2 or higher? GGCCGGCAUGGUCCCAGCCUCCUCCCUGGCGCCGGCUGGGCAACAUUCCGACGGGACCGUCCCCUCGGUAAUGGCGAAUGGGACCCA [G25C G52C]
N

For this variant, is measured self-cleavage 0.2 or higher? GGCCGGCAUGGUCCCAGCCUCCUCGCUGGCGUCGGCUGGGCAACAUUCCGAGGGGACCGUCCCCUCGUUAAUGGCGAAUGGGACCCA [C32U G68U]
Y

For this variant, is measured self-cleavage 0.2 or higher? GGCCGGCAUGGUCCCAGCCUCCUCGCUGGCGCCGGCUGGGCAGCAUUCCGAGGGGACCGUCCCCUCGGUAAUGGCGAAUGGGACCUA [A43G C86U]
Y

For this variant, is measured self-cleavage 0.2 or higher? GGCCGGCAUGGUCCCAGCCUCCUCGCUGGCGCCGGCUGGGCAACAUUCCGAGUGGACCGUCCCCUCGGUAAUGGCGAAUGGGACCCG [G53U A87G]
Y
